# tgt: Prostaglandin D2 receptor (Homo sapiens)
# Sequence (Q13258 whole entry): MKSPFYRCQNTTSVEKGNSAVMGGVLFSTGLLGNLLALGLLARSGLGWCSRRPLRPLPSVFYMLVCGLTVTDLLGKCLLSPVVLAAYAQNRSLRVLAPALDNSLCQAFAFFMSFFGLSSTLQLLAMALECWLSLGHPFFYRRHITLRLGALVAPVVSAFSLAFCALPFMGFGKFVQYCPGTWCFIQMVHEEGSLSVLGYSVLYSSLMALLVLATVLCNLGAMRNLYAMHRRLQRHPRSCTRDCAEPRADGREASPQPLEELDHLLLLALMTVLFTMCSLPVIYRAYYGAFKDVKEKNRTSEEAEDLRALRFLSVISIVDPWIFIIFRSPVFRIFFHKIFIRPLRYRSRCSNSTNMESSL
# assay_notes: Displacement of [3H]PGD2 from human DP receptor expressed in HEK293 cells by scintillation counting in presence of 0.5% BSA
# Type: cell-based
pIC50: −log10 of the molar value.
measured_property: pIC50

Field: example entries. Status: answers known.
smiles_entry: CCc1nc(-c2ccc(Oc3ccc(CC(=O)O)cc3OC)c(NS(=O)(=O)c3ccc(Cl)cc3Cl)c2)n[nH]1
tgt: Prostaglandin D2 receptor (Homo sapiens)
pIC50: 7.82

smiles_entry: CCCCNC(=O)c1ccc(Oc2ccc3c(CC(=O)O)c[nH]c3c2)c(NS(=O)(=O)c2ccc(Cl)cc2Cl)c1
tgt: Prostaglandin D2 receptor (Homo sapiens)
pIC50: 7.08

1 = CCCc1nc(-c2ccc(Oc3ccc(CC(=O)O)cc3OC)c(NS(=O)(=O)c3ccc(Cl)cc3Cl)c2)n[nH]1
2 = CCCCNC(=O)c1ccc(Oc2ccc3c(ccn3CC(=O)O)c2)c(NS(=O)(=O)c2ccc(Cl)cc2Cl)c1
Ask: Which record shows the lower pIC50: the first, 1 , or the second, 2 ? I would appreciate it if you answered with the label of your choice.
Result: 2

a = CCCCNC(=O)c1ccc(Cc2ccc(CC(=O)O)cc2OC)c(NS(=O)(=O)c2ccc(Cl)cc2Cl)c1
b = CCCc1nc(-c2ccc(Oc3ccc(CC(=O)O)cc3OC)c(NS(=O)(=O)c3ccc(Cl)cc3Cl)c2)c[nH]1
Ask: Between the entries labelled a and b , which has a larger pIC50 value on record? Choose, then provide that item's label.
Result: a
(a: 8.22, b: 8.00)

###

# tgt: Prostaglandin D2 receptor (Homo sapiens, UniProt Q13258)
# Sequence (Q13258 whole entry): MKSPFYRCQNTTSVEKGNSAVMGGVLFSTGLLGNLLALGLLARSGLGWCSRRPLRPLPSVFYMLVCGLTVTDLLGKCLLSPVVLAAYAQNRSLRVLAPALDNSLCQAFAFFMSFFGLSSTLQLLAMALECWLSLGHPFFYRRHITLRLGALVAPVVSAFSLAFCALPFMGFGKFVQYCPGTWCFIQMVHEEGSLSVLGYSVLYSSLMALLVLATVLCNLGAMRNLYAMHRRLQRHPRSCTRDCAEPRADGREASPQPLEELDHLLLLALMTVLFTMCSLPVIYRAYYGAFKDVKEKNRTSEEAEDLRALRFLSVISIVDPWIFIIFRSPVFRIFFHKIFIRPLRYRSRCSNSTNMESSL
# assay_notes: Displacement of [3H]PGD2 from human DP receptor expressed in HEK293 cells by scintillation counting in presence of 0.5% BSA
# Format: cell-based
measured_property: IC50 (nM)

compound: CCCc1cc(-c2ccc(Oc3ccc(CC(=O)O)cc3OC)c(NS(=O)(=O)c3ccc(Cl)cc3Cl)c2)n[nH]1
measured_property: IC50
unit: nM
reported_value: 4
--
compound: CCCCNC(=O)c1ccc(Sc2ccc(CC(=O)O)cc2)c(NS(=O)(=O)c2ccc(Cl)cc2Cl)c1
measured_property: IC50
unit: nM
reported_value: 630

I = CCCCNC(=O)c1ccc(Oc2ccc(CC(=O)O)cn2)c(NS(=O)(=O)c2ccc(Cl)cc2Cl)c1
II = CCCCNC(=O)c1ccc(Oc2ccc(CC(=O)O)nc2)c(NS(=O)(=O)c2ccc(Cl)cc2Cl)c1
III = CCCCNC(=O)c1ccc(Oc2ccc3c(c2)OCC3CC(=O)O)c(NS(=O)(=O)c2ccc(Cl)cc2Cl)c1 (configuration not stated)
IV = CCCCNC(=O)c1ccc(Oc2ccc3c(CC(=O)O)coc3c2)c(NS(=O)(=O)c2ccc(Cl)cc2Cl)c1
V = CCc1noc(-c2ccc(Oc3ccc(CC(=O)O)cc3OC)c(NS(=O)(=O)c3ccc(Cl)cc3Cl)c2)n1
Ask: Order the records, beginning with the lowest IC50 and ending with the highest. List the labels in the requested order.
Result: IV, V, III, II, I
